molecular target: GAK (human) (UniProt O14976); assay: KINOMEscan competition binding; details: compound 10.0 µM
Sequence (O14976 whole entry, looked up): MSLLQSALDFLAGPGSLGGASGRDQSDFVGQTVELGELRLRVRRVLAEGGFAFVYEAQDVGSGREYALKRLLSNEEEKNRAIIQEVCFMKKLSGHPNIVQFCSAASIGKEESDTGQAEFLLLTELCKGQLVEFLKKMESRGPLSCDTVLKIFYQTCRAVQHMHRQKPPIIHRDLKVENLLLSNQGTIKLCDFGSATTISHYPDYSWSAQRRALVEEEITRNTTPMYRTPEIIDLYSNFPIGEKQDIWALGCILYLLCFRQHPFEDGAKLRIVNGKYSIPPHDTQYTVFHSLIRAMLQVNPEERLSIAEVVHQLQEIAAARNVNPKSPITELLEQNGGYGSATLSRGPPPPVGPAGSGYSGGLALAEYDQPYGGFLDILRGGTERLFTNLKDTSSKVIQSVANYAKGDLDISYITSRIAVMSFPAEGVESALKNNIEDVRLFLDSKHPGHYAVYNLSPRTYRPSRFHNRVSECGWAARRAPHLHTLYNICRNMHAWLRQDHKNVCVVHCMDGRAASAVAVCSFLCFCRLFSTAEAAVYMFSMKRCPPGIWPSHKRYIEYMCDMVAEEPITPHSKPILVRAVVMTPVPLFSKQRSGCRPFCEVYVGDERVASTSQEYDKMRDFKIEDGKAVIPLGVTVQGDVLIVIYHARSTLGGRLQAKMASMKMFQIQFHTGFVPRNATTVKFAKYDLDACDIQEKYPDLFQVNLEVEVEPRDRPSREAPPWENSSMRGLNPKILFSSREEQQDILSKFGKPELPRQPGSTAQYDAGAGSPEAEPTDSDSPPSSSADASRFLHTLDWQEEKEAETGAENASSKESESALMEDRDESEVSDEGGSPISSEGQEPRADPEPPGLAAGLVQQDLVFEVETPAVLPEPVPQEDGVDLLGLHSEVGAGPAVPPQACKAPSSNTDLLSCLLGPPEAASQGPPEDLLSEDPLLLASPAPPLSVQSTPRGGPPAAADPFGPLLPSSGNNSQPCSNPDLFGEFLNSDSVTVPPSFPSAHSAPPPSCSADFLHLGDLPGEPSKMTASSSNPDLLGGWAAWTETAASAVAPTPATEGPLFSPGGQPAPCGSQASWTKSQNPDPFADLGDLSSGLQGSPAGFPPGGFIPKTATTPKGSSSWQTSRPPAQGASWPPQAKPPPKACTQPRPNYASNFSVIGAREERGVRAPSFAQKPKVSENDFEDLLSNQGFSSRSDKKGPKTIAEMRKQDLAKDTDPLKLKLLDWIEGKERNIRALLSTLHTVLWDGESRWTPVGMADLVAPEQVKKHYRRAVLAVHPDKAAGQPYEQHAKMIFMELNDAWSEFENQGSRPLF
reported_metric: kinase still bound, per cent of control (%)
API: value field is a number in %; no unit string.

Incoming: Tell us which kinase still bound, per cent of control value is on record for COc1cc(N2CCC(N3CCN(C)CC3)CC2)ccc1Nc1ncc2c(n1)N1CCCC1CC(=O)N2C (configuration not stated)
Outgoing: 2.6

Incoming: Tell us which kinase still bound, per cent of control value is on record for `COc1cc(N2CCN(C)CC2)ccc1Nc1ncc2c(n1)Nc1ccccc1NC2=O`
Outgoing: 5.8

Incoming: Tell us which kinase still bound, per cent of control value is on record for `CSC1=NC(=O)/C(=C/c2c[nH]c(=O)c(-c3ccc(NS(C)(=O)=O)cc3)c2)S1`
Outgoing: 3.4

Incoming: Tell us which kinase still bound, per cent of control value is on record for `CN1C(=O)CCN(C2CCCC2)c2nc(Nc3ccc(N4CCC(O)CC4)cn3)ncc21`
Outgoing: 23

Incoming: Tell us which kinase still bound, per cent of control value is on record for `O=C1NC(=S)S/C1=C\c1ccc(-c2cccc3ccccc23)o1`
Outgoing: 28

Incoming: Tell us which kinase still bound, per cent of control value is on record for `CCOc1cc(N2CCC(O)CC2)ccc1Nc1ncc2c(n1)N(C)c1ccccc1C(=O)N2C`
Outgoing: 31

Incoming: Tell us which kinase still bound, per cent of control value is on record for `COc1cc(N2CCC(C(N)=O)CC2)ccc1Nc1ncc2c(n1)N(C1CCCC1)[C@@H]1CCC[C@@H]1C(=O)N2C`
Outgoing: 12

Incoming: Tell us which kinase still bound, per cent of control value is on record for `CCOc1cc(N2CCC(O)CC2)ccc1Nc1ncc2c(n1)N(C1CCCC1)CCC(=O)N2C`
Outgoing: 2

Incoming: Tell us which kinase still bound, per cent of control value is on record for `COc1cc(N2CCC(O)CC2)ccc1Nc1ncc2c(n1)N(C1CCCC1)CCC(=O)N2C`
Outgoing: 1.8

Incoming: Tell us which kinase still bound, per cent of control value is on record for `CN1C(=O)c2ccccc2N(C)c2nc(Nc3ccc(N4CCC(O)CC4)cn3)ncc21`
Outgoing: 33

Incoming: Tell us which kinase still bound, per cent of control value is on record for `N=C1NC(=O)/C(=C/c2ccc(-c3ccccc3O)o2)S1`
Outgoing: 7.6

Incoming: Tell us which kinase still bound, per cent of control value is on record for `COc1cc(N2CCN(C)CC2)ccc1Nc1ncc2c(n1)N(C)c1sccc1C(=O)N2C`
Outgoing: 24

----------
target: BMPR2 (human); assay: KINOMEscan competition binding; settings: compound 10.0 µM
I'd appreciate it if you could supply kinase still bound, per cent of control values for the items below.
Please format your answer as a value with the unit trailing.

Incoming: Tell us which kinase still bound, per cent of control value is on record for `COc1cc(N2CCN(C)CC2)ccc1Nc1ncc2c(n1)N(C)c1ccccc1N(C)C2=O`
Outgoing: 100%

Incoming: Tell us which kinase still bound, per cent of control value is on record for `COc1cc(N2CCN(C)CC2)ccc1Nc1ncc2c(n1)Nc1ccccc1NC2=O`
Outgoing: 100%

Incoming: Tell us which kinase still bound, per cent of control value is on record for `COc1cc(N2CCN(C)CC2)ccc1Nc1ncc2c(n1)N(C)c1sccc1C(=O)N2C`
Outgoing: 100%

Incoming: Tell us which kinase still bound, per cent of control value is on record for `O=C1NC(=O)/C(=C/c2c[nH]c(=O)c(-c3ccc(N4CCNCC4)nc3)c2)S1`
Outgoing: 19%

Incoming: Tell us which kinase still bound, per cent of control value is on record for `CN1C(=O)c2ccccc2N(C)c2nc(Nc3ccc(N4CCC(O)CC4)cc3)ncc21`
Outgoing: 78%

Incoming: Tell us which kinase still bound, per cent of control value is on record for `O=C1NC(=O)/C(=C/c2ccc(-c3ccc(F)cc3O)o2)S1`
Outgoing: 12%
